Molecular target: EGFR(L858R,T790M) (Homo sapiens, UniProt P00533, L858R/T790M)
Construct: purchased Eurofins DiscoverX KINOMEscan (scanTK)
Sequence (P00533 25-1210 T790M/L858R): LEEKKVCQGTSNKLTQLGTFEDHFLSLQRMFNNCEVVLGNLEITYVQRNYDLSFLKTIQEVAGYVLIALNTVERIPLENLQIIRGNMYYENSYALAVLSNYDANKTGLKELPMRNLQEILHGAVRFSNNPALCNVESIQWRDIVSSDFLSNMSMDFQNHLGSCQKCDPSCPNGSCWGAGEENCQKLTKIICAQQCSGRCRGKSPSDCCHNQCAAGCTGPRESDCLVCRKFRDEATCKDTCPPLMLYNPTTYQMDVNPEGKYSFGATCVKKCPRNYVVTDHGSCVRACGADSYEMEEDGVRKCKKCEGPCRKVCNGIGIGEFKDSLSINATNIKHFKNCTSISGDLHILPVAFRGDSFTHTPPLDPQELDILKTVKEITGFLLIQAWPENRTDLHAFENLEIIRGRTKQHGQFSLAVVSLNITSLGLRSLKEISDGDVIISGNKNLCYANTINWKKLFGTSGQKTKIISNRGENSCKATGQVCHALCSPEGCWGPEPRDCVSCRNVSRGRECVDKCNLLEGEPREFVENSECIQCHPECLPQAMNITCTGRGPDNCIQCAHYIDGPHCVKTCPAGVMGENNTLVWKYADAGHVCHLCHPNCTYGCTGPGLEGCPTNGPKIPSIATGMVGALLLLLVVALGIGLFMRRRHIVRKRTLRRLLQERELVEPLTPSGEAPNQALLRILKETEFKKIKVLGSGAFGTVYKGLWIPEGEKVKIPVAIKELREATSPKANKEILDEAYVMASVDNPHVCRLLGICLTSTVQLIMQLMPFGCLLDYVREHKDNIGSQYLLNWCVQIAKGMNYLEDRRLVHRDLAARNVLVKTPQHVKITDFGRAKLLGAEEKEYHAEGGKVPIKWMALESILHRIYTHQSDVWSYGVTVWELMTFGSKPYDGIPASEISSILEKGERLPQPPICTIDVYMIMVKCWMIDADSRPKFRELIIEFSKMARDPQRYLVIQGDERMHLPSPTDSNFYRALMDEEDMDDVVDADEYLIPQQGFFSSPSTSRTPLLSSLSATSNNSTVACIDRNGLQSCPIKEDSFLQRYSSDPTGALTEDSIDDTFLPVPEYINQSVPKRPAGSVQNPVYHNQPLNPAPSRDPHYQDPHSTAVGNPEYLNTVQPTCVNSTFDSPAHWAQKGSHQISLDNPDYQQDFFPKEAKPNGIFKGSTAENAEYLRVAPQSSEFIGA
Test: KINOMEscan ScanTK
Type: binding
Settings: @1000nM, read-out: %Control
value-kind: remaining binding at 1 µM (%)

1) CCOC(=O)c1cnc(S(C)(=O)=O)nc1N1CCC[C@@H](n2nc(-c3ccc(Oc4ccccc4)cc3)c3c(N)ncnc32)C1
87
2) COC(=O)c1cnc(S(C)(=O)=O)nc1N1CCCC(n2nc(-c3ccc(Oc4ccccc4)cc3)c3c(N)ncnc32)C1 (stereo not shown)
79
3) Cc1cnc(S(C)(=O)=O)nc1N1CCCC(n2nc(-c3ccc(Oc4ccccc4)cc3)c3c(N)ncnc32)C1 (stereo not shown)
91
4) CNC(=O)c1cnc(S(C)(=O)=O)nc1N1CCCC(n2nc(-c3ccc(Oc4ccccc4)cc3)c3c(N)ncnc32)C1 (stereo not shown)
59
